meta.source: the supplement of paper PMC6555819

- System: PPARg DBDmut IVT, anti-PPARg (DBD mutation: PPARg1 K132A/R137A, NR concentration 270 nM)
- test_details: PBM binding z-score (relative to random genomic background probes); higher = stronger binding; sequences stand for … in GC…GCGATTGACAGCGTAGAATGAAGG
assay_metric: PBM binding z-score
Lab note: write the figure by itself, no unit.

Please review the following examples before continuing.
> print(dat)
               macromolecule.sequence         assay.metric  experimental.result
1  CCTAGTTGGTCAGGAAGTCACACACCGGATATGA  PBM binding z-score               0.0813
2  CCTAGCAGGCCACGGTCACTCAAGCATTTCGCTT  PBM binding z-score                -1.29
3  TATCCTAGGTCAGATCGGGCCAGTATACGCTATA  PBM binding z-score                  1.4
4  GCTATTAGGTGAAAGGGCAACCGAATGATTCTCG  PBM binding z-score               0.0827
5  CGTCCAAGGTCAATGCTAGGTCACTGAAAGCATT  PBM binding z-score                0.266

API: the following record is the query input.
Would you kindly share the measured PBM binding z-score for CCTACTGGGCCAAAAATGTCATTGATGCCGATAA ?
-0.43
